target: CD8 (cell surface CD8 on HPB-ALL cells) (UniProt P01732 22-235; A6NJW9 19-210); assay: FACS
Sequence (P01732 22-235, chain 1 of 2): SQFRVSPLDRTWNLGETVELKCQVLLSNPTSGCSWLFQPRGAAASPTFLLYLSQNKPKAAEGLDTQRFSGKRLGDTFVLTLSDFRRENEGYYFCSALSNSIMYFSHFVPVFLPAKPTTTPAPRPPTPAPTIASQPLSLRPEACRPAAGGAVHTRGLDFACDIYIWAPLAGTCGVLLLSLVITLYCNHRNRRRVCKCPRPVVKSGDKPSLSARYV
Sequence (A6NJW9 19-210 C51R/T71A, chain 2 of 2): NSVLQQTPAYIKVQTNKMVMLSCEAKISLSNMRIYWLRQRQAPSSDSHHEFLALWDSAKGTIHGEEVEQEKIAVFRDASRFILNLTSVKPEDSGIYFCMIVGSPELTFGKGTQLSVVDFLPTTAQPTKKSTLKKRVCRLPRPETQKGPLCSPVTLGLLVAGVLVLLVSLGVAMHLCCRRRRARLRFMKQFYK
measurement type: pEC50
// returns pEC50 (minus log10 of molar concentration), number only

Example entries begin here.
binder: IAB22M γ2 EH2 (other) DVQITQSPSSLSASVGDRVTITCRTSRSISQYLAWYQQKPGKVPKLLIYSGSTLQSGVPSRFSGSGSGTDFTLTISSLQPEDVATYYCQQHNENPLTFGGGTKVEIKGSTSGGGSGGGSGGGGSSEVQLVESGGGLVQPGGSLRLSCAASGFNIKDTYIHFVRQAPGKGLEWIGRIDPANDNTLYASKFQGKATISADTSKNTAYLQMNSLRAEDTAVYYCGRGYGYYVFDHWGQGTLVTVSSERKSCVECPPCPGGGSSGGGSGGQPREPQVYTLPPSREEMTKNQVSLTCLVKGFYPSDIAVEWESNGQPENNYKTTPPMLDSDGSFFLYSKLTVDKSRWQQGNVFSCSVMHEALHNHYTQKSLSLSPGK
pEC50: 9.81
//
binder: IAB22M γ1 EH5 (other) DVQITQSPSSLSASVGDRVTITCRTSRSISQYLAWYQQKPGKVPKLLIYSGSTLQSGVPSRFSGSGSGTDFTLTISSLQPEDVATYYCQQHNENPLTFGGGTKVEIKGSTSGGGSGGGSGGGGSSEVQLVESGGGLVQPGGSLRLSCAASGFNIKDTYIHFVRQAPGKGLEWIGRIDPANDNTLYASKFQGKATISADTSKNTAYLQMNSLRAEDTAVYYCGRGYGYYVFDHWGQGTLVTVSSEPKSSDKTHTCPPCPPCPPCGGGSSGGGSGGQPREPQVYTLPPSRDELTKNQVSLTCLVKGFYPSDIAVEWESNGQPENNYKTTPPVLDSDGSFFLYSKLTVDKSRWQQGNVFSCSVMHEALHNHYTQKSLSLSPGK
pEC50: 9.84
//
binder: IAB22M γ3/γ1 EH8 (other) DVQITQSPSSLSASVGDRVTITCRTSRSISQYLAWYQQKPGKVPKLLIYSGSTLQSGVPSRFSGSGSGTDFTLTISSLQPEDVATYYCQQHNENPLTFGGGTKVEIKGSTSGGGSGGGSGGGGSSEVQLVESGGGLVQPGGSLRLSCAASGFNIKDTYIHFVRQAPGKGLEWIGRIDPANDNTLYASKFQGKATISADTSKNTAYLQMNSLRAEDTAVYYCGRGYGYYVFDHWGQGTLVTVSSELKTPLGDTTHTCPPCPPCPPCGGGSSGGGSGGQPREPQVYTLPPSRDELTKNQVSLTCLVKGFYPSDIAVEWESNGQPENNYKTTPPVLDSDGSFFLYSKLTVDKSRWQQGNVFSCSVMHEALHNHYTQKSLSLSPGK
pEC50: 9.79
//
binder: IAB22M γ1 EH3 (other) DVQITQSPSSLSASVGDRVTITCRTSRSISQYLAWYQQKPGKVPKLLIYSGSTLQSGVPSRFSGSGSGTDFTLTISSLQPEDVATYYCQQHNENPLTFGGGTKVEIKGSTSGGGSGGGSGGGGSSEVQLVESGGGLVQPGGSLRLSCAASGFNIKDTYIHFVRQAPGKGLEWIGRIDPANDNTLYASKFQGKATISADTSKNTAYLQMNSLRAEDTAVYYCGRGYGYYVFDHWGQGTLVTVSSEPKSSDKTHTCPPCPPCGGGSSGGGSGGQPREPQVYTLPPSRDELTKNQVSLTCLVKGFYPSDIAVEWESNGQPENNYKTTPPVLDSDGSFFLYSKLTVDKSRWQQGNVFSCSVMHEALHNHYTQKSLSLSPGK
pEC50: 9.43

Could you now look at the following binder, please?
Reported pEC50 of IAB22M γ3/γ1 EH7 (other) DVQITQSPSSLSASVGDRVTITCRTSRSISQYLAWYQQKPGKVPKLLIYSGSTLQSGVPSRFSGSGSGTDFTLTISSLQPEDVATYYCQQHNENPLTFGGGTKVEIKGSTSGGGSGGGSGGGGSSEVQLVESGGGLVQPGGSLRLSCAASGFNIKDTYIHFVRQAPGKGLEWIGRIDPANDNTLYASKFQGKATISADTSKNTAYLQMNSLRAEDTAVYYCGRGYGYYVFDHWGQGTLVTVSSELKTPLGDTTHTCPPCPPCGGGSSGGGSGGQPREPQVYTLPPSRDELTKNQVSLTCLVKGFYPSDIAVEWESNGQPENNYKTTPPVLDSDGSFFLYSKLTVDKSRWQQGNVFSCSVMHEALHNHYTQKSLSLSPGK : 9.77
